tested on: Factor XI protein; experiment: Cynomolgus monkeys: plasma Factor XI protein ELISA (Example 30); format: in vivo; conditions: 25 mg/kg s.c.; plasma ELISA; Day −5
In the oligonucleotide strings, read from the 5' end, every base follows the letter of its sugar. An asterisk marks phosphorothioate; unmarked linkages are phosphodiester. Other units and linkages are bracketed, terminal groups are in braces. A string of capitals states the bases alone. e = 2'-O-(2-methoxyethyl) (MOE); [5mC] = 5-methylcytosine; d = 2'-deoxy (DNA)
Collected Inhibition of Factor XI protein relative to the PBS control values appear next to each entry.
Write down the numeric answer in % and omit the unit.

449710 (antisense e[5mC]*eA*e[5mC]*dA*dG*dT*dT*dT*d[5mC]*dT*dG*dG*d[5mC]*eA*eG*eG) [compound 449710]; 0
449708 (antisense eA*e[5mC]*eA*dG*dT*dT*dT*d[5mC]*dT*dG*dG*e[5mC]*eA*eG) [compound 449708]; 0
449709 (antisense eG*e[5mC]*eA*e[5mC]*dA*dG*dT*dT*dT*d[5mC]*dT*dG*dG*d[5mC]*eA*eG*eG*e[5mC]) [compound 449709]; 0
416850 (antisense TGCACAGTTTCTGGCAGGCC; 5-10-5 gapmer, wing sugar chemistry not given here, further chemistry not given here) [compound 416850]; 0
449711 (antisense eA*e[5mC]*dA*dG*dT*dT*dT*d[5mC]*dT*dG*dG*d[5mC]*eA*eG) [compound 449711]; 1

-- ask Consider the substance shown here: 416858 (antisense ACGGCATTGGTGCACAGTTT; 5-10-5 gapmer, wing sugar chemistry not given here, further chemistry not given here) [compound 416858] What is its recorded Inhibition of Factor XI protein relative to the PBS control?
-- reply 0

====

experiment: Tolerability in Sprague-Dawley rats: body and organ weights (Example 23); assay type: in vivo; conditions: 50 mg/kg s.c. twice per week for 6 weeks, percentage of the body weight
Readout name: Liver weight (%)
Respond numerically; units are % and should not be typed.

Before answering, review these 4 worked examples.
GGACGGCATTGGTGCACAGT (antisense; all C 5-methyl, all phosphorothioate, sugars by position not given here; MOE gapmer, 5-10-5) [ISIS 413482, 5-10-5 MOE gapmer]; 5
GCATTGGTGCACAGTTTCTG (antisense; all C 5-methyl, all phosphorothioate, sugars by position not given here; MOE gapmer, 5-10-5) [ISIS 412224, 5-10-5 MOE gapmer]; 5
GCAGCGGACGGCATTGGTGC (antisense; all C 5-methyl, all phosphorothioate, sugars by position not given here; MOE gapmer, 5-10-5) [ISIS 412225, 5-10-5 MOE gapmer]; 4
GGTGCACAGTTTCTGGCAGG (all C 5-methyl, all phosphorothioate, sugars by position not given here; MOE gapmer) [ISIS 413481, 5-10-5 MOE gapmer]; 5

# input for lookup
-- ask What value of Liver weight has been reported for the following sequence? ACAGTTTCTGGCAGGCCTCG (antisense; all C 5-methyl, all phosphorothioate, sugars by position not given here; MOE gapmer, 5-10-5) [ISIS 412223, 5-10-5 MOE gapmer]
-- reply 5

====

experiment: Tolerability in Sprague-Dawley rats: liver function (Example 23); type: in vivo; conditions: plasma, 50 mg/kg s.c. twice per week for 6 weeks
Listed sequences paired with reported AST
Quick note: give the figure in IU/L, leave out the unit.

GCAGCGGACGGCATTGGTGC (antisense; all C 5-methyl, all phosphorothioate, sugars by position not given here; MOE gapmer, 5-10-5) [ISIS 412225, 5-10-5 MOE gapmer]; 108
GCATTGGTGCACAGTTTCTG (antisense; all C 5-methyl, all phosphorothioate, sugars by position not given here; MOE gapmer, 5-10-5) [ISIS 412224, 5-10-5 MOE gapmer]; 132
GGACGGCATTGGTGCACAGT (antisense; all C 5-methyl, all phosphorothioate, sugars by position not given here; MOE gapmer, 5-10-5) [ISIS 413482, 5-10-5 MOE gapmer]; 157

-- ask Reported AST, sequence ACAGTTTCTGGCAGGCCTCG (antisense; all C 5-methyl, all phosphorothioate, sugars by position not given here; MOE gapmer, 5-10-5) [ISIS 412223, 5-10-5 MOE gapmer] : ____
-- reply 180

-- ask Which measured AST value corresponds to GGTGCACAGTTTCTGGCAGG (all C 5-methyl, all phosphorothioate, sugars by position not given here; MOE gapmer) [ISIS 413481, 5-10-5 MOE gapmer] ?
-- reply 80
